relative integration efficiency (log2): recorded values
Tested on: VchCAST RNA-guided transposition machinery (E. coli BL21(DE3) host, lacZ target)
Assay: relative integration efficiency (T-RL orientation) vs wild-type transposon end (log2 (normalized fold change)); transposon end mutated: right end (5 bp flank + 75 bp right end); higher = more efficient transposition

In the examples that follow, each entry is paired with its recorded relative integration efficiency (log2).
# SEQUENCE CHAIN, TARGET, relative integration efficiency (log2)
records = [
    ("ACATTTGTTGATACAACCATAAAATGATAATTAATAATTATTCACCCATAAATTGATAATTATCACACCCATAAATTGATATTGCCTCTGATCATAGTCAGACCAACATTGCTACGACCCGTATTCG", "VchCAST RNA-guided transposition machinery (E. coli BL21(DE3) host, lacZ target)", -3.98),
    ("ACATTTGTAAAAAAAACCATACGTTGATTTTACGAAACCATACGCTGAAATAATCACAACCATAAATTGAAATTGCCTCTGATCATAGTCAGACCAACATTGCTACGACCCGTATTCGCACCGACAC", "VchCAST RNA-guided transposition machinery (E. coli BL21(DE3) host, lacZ target)", -6.99),
    ("ACATTTGTTGATAGAACCATAAAATGATAATTAGACCCATAAATTGATAATTATCAGACCCATAAATTGATATTGCCTCTGATCATAGTCAGACCAACATTGCTACGACCCGTATTCGCACCGACAC", "VchCAST RNA-guided transposition machinery (E. coli BL21(DE3) host, lacZ target)", -1.64),
]

query: Output relative integration efficiency (log2) of ACATTTGTTGATAACCAACGCCCCGTCGCCGGCCACCCATAAATTGATAATTATCAACAAACGCCCGGTCGCGGTACTCTGATCATAGTCAGACCAACATTGCTACGACCCGTATTCGCACCGACAC
result: -7.3

query: Output relative integration efficiency (log2) of ACATTTGTTGATACAACCATTAAATGATAATTCCACCCAAATATTGATAATTATCACACCCAATTTAACTATAACGCTCTGATCATAGTCAGACCAACATTGCTACGACCCGTATTCGCACCGACAC
result: -1.51

====

Tested on: VchCAST RNA-guided transposition machinery (E. coli BL21(DE3) host, lacZ target)
Experiment: relative integration efficiency (T-LR orientation) vs wild-type transposon end (log2 (normalized fold change)); transposon end mutated: right end (5 bp flank + 75 bp right end); higher = more efficient transposition
Decision: relative integration efficiency (log2) >= 0.6 yields Y, all other cases yield N.

query: // inclusive: relative integration efficiency (log2) at least 0.6? input: ACATTTGTTGATACAACCATAAAATGATAATTACACCCATAAATTGATATATATCACACCCATAAATTGATATTGCCTCTGATCATAGTCAGACCAACATTGCTACGACCCGTATTCGCACCGACAC
result: N

query: // inclusive: relative integration efficiency (log2) at least 0.6? input: ACATTTGTCGATACAACCATAAAACGATAATTACACCCATAAATTCATAATTATCACACCCAATTTAACTATAACGCTCTGATCATAGTCAGACCAACATTGCTACGACCCGTATTCGCACCGACAC
result: Y

query: // inclusive: relative integration efficiency (log2) at least 0.6? input: ACATTTGTTGATACAACCATAAAATGATCATTACCCCCATCAATTGATAATTATCCCACCCAATTTAACTATAACGCTCTGATCATAGTCAGACCAACATTGCTACGACCCGTATTCGCACCGACAC
result: N

query: // inclusive: relative integration efficiency (log2) at least 0.6? input: ACATTTGTTGATACAACCATAAGTTGATATTTTCACCCATAAATTGATATTGCTCACAACCATATATTGATATCTCCTCTGATCATAGTCAGACCAACATTGCTACGACCCGTATTCGCACCGACAC
result: N

query: // inclusive: relative integration efficiency (log2) at least 0.6? input: ACATTTGTTGATACAACCAAAAAATGATAATTACACCCATAAATTGATAATTGTGACACCGAATTTAACTATAACGCTCTGATCATAGTCAGACCAACATTGCTACGACCCGTATTCGCACCGACAC
result: Y

query: // inclusive: relative integration efficiency (log2) at least 0.6? input: ACATTTGTTGATACAACCATAAAATGATACACCCATAAATTGATAATTATCACACCCATAAATTGATATTGCCTCTGATCATAGTCAGACCAACATTGCTACGACCCGTATTCGCACCGACACTGAC
result: N

query: // inclusive: relative integration efficiency (log2) at least 0.6? input: ACATTTGTTCATCCAACCATAAAATGATAATTACACCCATAAATGGATAATTATCACACCCAATTTAACTATAACGCTCTGATCATAGTCAGACCAACATTGCTACGACCCGTATTCGCACCGACAC
result: N

query: // inclusive: relative integration efficiency (log2) at least 0.6? input: ACATTTGTTGATACAACCATAAAATGATAATTAATCACCCATAAATTGATAATTATCACACCCATAAATTGATATTGCCTCTGATCATAGTCAGACCAACATTGCTACGACCCGTATTCGCACCGAC
result: N

====

System: VchCAST RNA-guided transposition machinery (E. coli BL21(DE3) host, lacZ target)
Test: relative integration efficiency (T-RL orientation) vs wild-type transposon end (log2 (normalized fold change)); transposon end mutated: right end (5 bp flank + 75 bp right end); higher = more efficient transposition
Decision: relative integration efficiency (log2) >= -0.9 yields met, all other cases yield not met.

Known results for sequences:
# SEQUENCE CHAIN, TARGET, CLASS
rows = [
    ("ACATTTGTTCATACAACCCTAAAATGATAATTACACCCATAAATGGATCATTATCACCCCCAATTTAACTATAACGCTCTGATCATAGTCAGACCAACATTGCTACGACCCGTATTCGCACCGACAC", "VchCAST RNA-guided transposition machinery (E. coli BL21(DE3) host, lacZ target)", "not met"),
    ("ACATTTGTTGATACAACCATAAAATGATAAAATCACCCATAAATTGATAAAATTCACACCCATAAATTGATATACGCTCTGATCATAGTCAGACCAACATTGCTACGACCCGTATTCGCACCGACAC", "VchCAST RNA-guided transposition machinery (E. coli BL21(DE3) host, lacZ target)", "not met"),
    ("ACATTTGTAAAAAAAACCATACGTTGATTTTACGAAACCATACGCTGAAATAATCACAACCATAAATTGATATTGCCTCTGATCATAGTCAGACCAACATTGCTACGACCCGTATTCGCACCGACAC", "VchCAST RNA-guided transposition machinery (E. coli BL21(DE3) host, lacZ target)", "not met"),
    ("ACATTTGTTGATACAACCATAAAATGATAATTACACCCATAAATTGATAATTAAGTGACCCATAAATTGATATTGCCTCTGATCATAGTCAGACCAACATTGCTACGACCCGTATTCGCACCGACAC", "VchCAST RNA-guided transposition machinery (E. coli BL21(DE3) host, lacZ target)", "met"),
]

query: // inclusive: relative integration efficiency (log2) at least -0.9? input: ACATTTGTGGATCCAACCATAAAATGATAATTACACCCATAAATTGATAATTATCACACCCAATTTAACTATAACGCTCTGATCATAGTCAGACCAACATTGCTACGACCCGTATTCGCACCGACAC
result: met

query: // inclusive: relative integration efficiency (log2) at least -0.9? input: ACATTTGTTGATACAACCAATAAAAGATTAATACCCCCATTAATTGATAATTGTGACACCGAATTTAACTATAACGCTCTGATCATAGTCAGACCAACATTGCTACGACCCGTATTCGCACCGACAC
result: not met

query: // inclusive: relative integration efficiency (log2) at least -0.9? input: ACATTTGTTGATACAACCATATATTGATATCTCCACCCATAAATTGATATTGCTCACAACCATATATTGATATCTCCTCTGATCATAGTCAGACCAACATTGCTACGACCCGTATTCGCACCGACAC
result: met

query: // inclusive: relative integration efficiency (log2) at least -0.9? input: ACATTTGTCGATACAACCCTAAAATGATAATTACACCCATAAATTCATCATTATCACACCCAATTTAACTATAACGCTCTGATCATAGTCAGACCAACATTGCTACGACCCGTATTCGCACCGACAC
result: not met

query: // inclusive: relative integration efficiency (log2) at least -0.9? input: ACATTTGTTGATACAACCATAAAATGATAATTACTCTGATCATAGTCAGACCAACATTGCTACGACCCGTATTCGCACCACCCATAAATTGATAATTATCAGTGGGTATTTAACTATAACGCGACAC
result: not met
